Listing of recorded LAMBDA MAX (VISIBLE) by entry.
Assay Remarks: lambda max of the activated (colored) form in the visible spectrum
Format: physicochemical
Parameters: unit not given here
Condition Notes: wavelength of maximum absorption of the activated form, in a diethylene glycol bis(allyl carbonate) composition

Molecule	LAMBDA MAX (VISIBLE)
COC(=O)c1c2c(c3ccccc3c1O)OC(c1ccccc1)(c1ccc(N3CCOCC3)cc1)C=C2 (centres unmarked) [Example 1]	511
COC(=O)c1c2c(c3ccccc3c1OC(C)=O)OC(c1ccc(N(C)C)cc1)(c1ccc(N(C)C)cc1)C=C2 [Example 8]	618
CCn1c2ccccc2c2ccc(C3(c4ccccc4)C=Cc4c(C(=O)OC)c(OC(C)=O)c5ccccc5c4O3)cc21 (centres unmarked) [Example 4]	528
COC(=O)c1c2c(c3ccccc3c1C)OC(c1ccccc1)(c1ccc(N(C)C)cc1)C=C2 (centres unmarked) [Example 7]	584
COC(=O)c1c2c(c3ccccc3c1OC(C)=O)OC(c1ccccc1)(c1ccc(N3CCOCC3)cc1)C=C2 (centres unmarked) [Example 3]	545
COC(=O)c1c2c(c3ccccc3c1OC(C)=O)OC(c1ccccc1)(c1ccc3c4ccccc4n(-c4ccccc4)c3c1)C=C2 (centres unmarked) [Example 5]	520
COC(=O)c1c2c(c3ccccc3c1OC)OC(c1ccccc1)(c1ccc(N3CCOCC3)cc1)C=C2 (centres unmarked) [Example 2]	541
COC(=O)c1c2c(c3ccccc3c1OC(C)=O)OC(c1ccccc1)(c1ccc(N(C)C)cc1)C=C2 (centres unmarked) [Example 6]	591

* * *

Assay Remarks: photochromic response of test squares on an optical bench (sensitivity, saturation optical density, bleach rate)
Format: physicochemical
Condition Notes: Method I test square; first five seconds of UV exposure, expressed per minute; 75° F. (23.9° C.)

Molecule	ΔOD/MIN SENSITIVITY
COC(=O)c1c2c(c3ccccc3c1OC)OC(c1ccccc1)(c1ccc(N3CCOCC3)cc1)C=C2 (stereo not shown) [Example 2]	0.29 ΔOD/MIN
COC(=O)c1c2c(c3ccccc3c1OC(C)=O)OC(c1ccccc1)(c1ccc3c4ccccc4n(-c4ccccc4)c3c1)C=C2 (stereo not shown) [Example 5]	0.31 ΔOD/MIN
COC(=O)c1c2c(c3ccccc3c1O)OC(c1ccccc1)(c1ccc(N3CCOCC3)cc1)C=C2 (stereo not shown) [Example 1]	0.64 ΔOD/MIN
COC(=O)c1c2c(c3ccccc3c1C)OC(c1ccccc1)(c1ccc(N(C)C)cc1)C=C2 (stereo not shown) [Example 7]	0.20 ΔOD/MIN
COC(=O)c1c2c(c3ccccc3c1OC(C)=O)OC(c1ccccc1)(c1ccc(N3CCOCC3)cc1)C=C2 (stereo not shown) [Example 3]	0.24 ΔOD/MIN
COC(=O)c1c2c(c3ccccc3c1OC(C)=O)OC(c1ccccc1)(c1ccc(N(C)C)cc1)C=C2 (stereo not shown) [Example 6]	0.27 ΔOD/MIN
COC(=O)c1c2c(c3ccccc3c1OC(C)=O)OC(c1ccc(N(C)C)cc1)(c1ccc(N(C)C)cc1)C=C2 [Example 8]	0.16 ΔOD/MIN

* * *

Assay Remarks: photochromic response of test squares on an optical bench (sensitivity, saturation optical density, bleach rate)
Assay type: physicochemical
Condition Notes: Method I test square; UV exposure 20 minutes; 75° F. (23.9° C.)
Outcome Measure: ΔOD @ SATURATION

Compound	Outcome Measure	Observed
COC(=O)c1c2c(c3ccccc3c1OC(C)=O)OC(c1ccccc1)(c1ccc(N3CCOCC3)cc1)C=C2 (stereo not shown)	ΔOD @ SATURATION	0.31
COC(=O)c1c2c(c3ccccc3c1OC)OC(c1ccccc1)(c1ccc(N3CCOCC3)cc1)C=C2 (stereo not shown)	ΔOD @ SATURATION	0.95
COC(=O)c1c2c(c3ccccc3c1C)OC(c1ccccc1)(c1ccc(N(C)C)cc1)C=C2 (stereo not shown)	ΔOD @ SATURATION	0.51
COC(=O)c1c2c(c3ccccc3c1OC(C)=O)OC(c1ccccc1)(c1ccc3c4ccccc4n(-c4ccccc4)c3c1)C=C2 (stereo not shown)	ΔOD @ SATURATION	0.88
